Where do these numbers come from? They come from paper PMC9078525.

# measured-on: chicken FAS (overall reaction) (Gallus gallus)
# Construct: tissue Huadu Broiler Corporation, Beijing; host or cells: chicken liver
# experiment: Enzyme inhibition kinetics (double reciprocal plots, variable substrate)
# Assay type: biochemical
# run-parameters: variable substrate Ac-CoA; secondary plot of slopes; read-out: Inhibition constant Kis
# Experimental: Possible interference by the inhibitor at each substrate binding site was examined by holding the concentration of the inhibitor at several fixed levels respectively, and increasing one substrate concentration while keeping the concentrations of the other substrates constant. […] Fig. 3 Lineweaver–Burke plots for inhibition of FAS activity by garcinone E. Double reciprocal plots for inhibition of FAS by garcinone E. The activity of the overall reaction of FAS was measured. […]
measurement-name: pKi
One number for each entry, as −log10 of the molar value.

Entry CC(C)=CCc1c(O)cc2oc3c(CC=C(C)C)c(O)c(O)c(CC=C(C)C)c3c(=O)c2c1O [garcinone E] , pKi reported as 5.75

----------
# measured-on: KR (β-ketoacyl reductase) of chicken FAS (Gallus gallus, UniProt P12276)
# Sequence (P12276 whole entry): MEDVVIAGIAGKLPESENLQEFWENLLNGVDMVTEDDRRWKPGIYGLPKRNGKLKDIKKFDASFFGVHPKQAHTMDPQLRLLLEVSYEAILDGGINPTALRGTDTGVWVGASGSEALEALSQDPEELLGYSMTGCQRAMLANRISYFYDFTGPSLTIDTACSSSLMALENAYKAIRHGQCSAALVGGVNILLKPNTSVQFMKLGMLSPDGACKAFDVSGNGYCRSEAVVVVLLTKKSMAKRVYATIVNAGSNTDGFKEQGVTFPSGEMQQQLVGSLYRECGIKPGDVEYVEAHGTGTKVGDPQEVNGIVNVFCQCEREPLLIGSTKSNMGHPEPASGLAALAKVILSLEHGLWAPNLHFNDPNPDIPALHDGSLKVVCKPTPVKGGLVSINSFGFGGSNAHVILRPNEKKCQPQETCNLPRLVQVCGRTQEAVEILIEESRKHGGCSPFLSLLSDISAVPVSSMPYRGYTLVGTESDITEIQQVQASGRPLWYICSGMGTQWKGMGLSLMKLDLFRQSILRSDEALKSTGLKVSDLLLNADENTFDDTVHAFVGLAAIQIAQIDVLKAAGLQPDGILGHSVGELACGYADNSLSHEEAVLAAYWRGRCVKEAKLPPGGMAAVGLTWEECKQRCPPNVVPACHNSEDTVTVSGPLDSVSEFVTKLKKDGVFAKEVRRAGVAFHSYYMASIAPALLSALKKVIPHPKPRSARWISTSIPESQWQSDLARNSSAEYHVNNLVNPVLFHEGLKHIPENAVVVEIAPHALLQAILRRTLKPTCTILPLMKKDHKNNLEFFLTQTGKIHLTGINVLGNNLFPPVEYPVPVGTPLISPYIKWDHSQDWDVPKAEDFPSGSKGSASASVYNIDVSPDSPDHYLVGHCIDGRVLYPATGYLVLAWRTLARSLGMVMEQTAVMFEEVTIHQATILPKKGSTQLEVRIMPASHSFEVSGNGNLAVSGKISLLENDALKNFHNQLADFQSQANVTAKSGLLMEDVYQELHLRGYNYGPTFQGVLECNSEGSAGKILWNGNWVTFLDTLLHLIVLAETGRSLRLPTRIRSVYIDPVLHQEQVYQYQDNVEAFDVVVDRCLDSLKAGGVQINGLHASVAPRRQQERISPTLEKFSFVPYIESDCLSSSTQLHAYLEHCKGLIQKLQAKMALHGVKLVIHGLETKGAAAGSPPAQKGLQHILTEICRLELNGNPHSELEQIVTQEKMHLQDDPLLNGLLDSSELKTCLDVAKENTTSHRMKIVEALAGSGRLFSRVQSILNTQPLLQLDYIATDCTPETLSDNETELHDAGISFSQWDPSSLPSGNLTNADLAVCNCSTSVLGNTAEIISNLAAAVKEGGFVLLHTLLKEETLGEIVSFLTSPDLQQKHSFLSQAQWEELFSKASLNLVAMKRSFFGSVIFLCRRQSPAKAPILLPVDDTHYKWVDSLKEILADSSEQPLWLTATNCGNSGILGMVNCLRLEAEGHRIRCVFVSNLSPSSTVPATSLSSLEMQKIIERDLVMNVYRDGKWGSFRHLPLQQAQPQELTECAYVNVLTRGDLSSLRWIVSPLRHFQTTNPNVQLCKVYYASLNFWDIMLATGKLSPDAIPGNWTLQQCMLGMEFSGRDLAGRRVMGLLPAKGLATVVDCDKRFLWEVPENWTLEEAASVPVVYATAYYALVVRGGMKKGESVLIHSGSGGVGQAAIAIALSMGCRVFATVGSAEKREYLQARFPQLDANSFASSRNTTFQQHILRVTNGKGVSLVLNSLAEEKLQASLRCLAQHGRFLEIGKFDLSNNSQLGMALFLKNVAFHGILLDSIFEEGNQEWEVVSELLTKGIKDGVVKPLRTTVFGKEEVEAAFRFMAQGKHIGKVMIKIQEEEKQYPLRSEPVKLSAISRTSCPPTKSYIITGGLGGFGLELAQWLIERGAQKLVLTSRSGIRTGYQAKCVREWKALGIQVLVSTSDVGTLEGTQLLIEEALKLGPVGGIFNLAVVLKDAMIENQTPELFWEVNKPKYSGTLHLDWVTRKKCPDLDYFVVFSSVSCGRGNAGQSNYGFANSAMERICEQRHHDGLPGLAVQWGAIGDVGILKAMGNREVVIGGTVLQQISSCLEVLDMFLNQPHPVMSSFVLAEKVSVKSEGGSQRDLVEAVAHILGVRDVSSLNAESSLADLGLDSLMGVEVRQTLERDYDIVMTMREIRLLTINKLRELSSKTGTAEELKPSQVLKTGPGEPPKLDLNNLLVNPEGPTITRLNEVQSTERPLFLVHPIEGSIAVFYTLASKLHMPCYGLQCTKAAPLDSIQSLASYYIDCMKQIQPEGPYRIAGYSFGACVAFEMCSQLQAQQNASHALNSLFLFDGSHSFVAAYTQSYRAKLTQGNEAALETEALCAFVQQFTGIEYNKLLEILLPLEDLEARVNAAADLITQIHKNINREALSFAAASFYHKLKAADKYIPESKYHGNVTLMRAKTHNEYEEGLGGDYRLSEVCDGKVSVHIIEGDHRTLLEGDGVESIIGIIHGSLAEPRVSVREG
measurement-name: IC50 (µM)
Numbers only, in µM.

Entry CC(C)=CCc1c(O)cc2oc3c(CC=C(C)C)c(O)c(O)c(CC=C(C)C)c3c(=O)c2c1O [garcinone E] , IC50 reported as 14.6

----------
# measured-on: chicken FAS (overall reaction) (Gallus gallus, UniProt P12276)
# Construct: tissue Huadu Broiler Corporation, Beijing; host or cells: chicken liver
# Sequence (P12276 whole entry): as above
# experiment: Enzyme inhibition kinetics (double reciprocal plots, variable substrate)
# Format: biochemical
# run-parameters: variable substrate Mal-CoA; secondary plot of slopes; read-out: Inhibition constant Kis
measurement-name: pKi
One number for each entry, as −log10 of the molar value.

Entry CC(C)=CCc1c(O)cc2oc3c(CC=C(C)C)c(O)c(O)c(CC=C(C)C)c3c(=O)c2c1O , pKi reported as 5.41
